Source: the supplement of paper PMC7877785

assay: self-splicing fitness, log relative to wild type (ln ratio); higher = more splicing; Tetrahymena group I intron in knt gene, E. coli kanamycin selection, DiMSum; sequences stand for … in CUCUCU…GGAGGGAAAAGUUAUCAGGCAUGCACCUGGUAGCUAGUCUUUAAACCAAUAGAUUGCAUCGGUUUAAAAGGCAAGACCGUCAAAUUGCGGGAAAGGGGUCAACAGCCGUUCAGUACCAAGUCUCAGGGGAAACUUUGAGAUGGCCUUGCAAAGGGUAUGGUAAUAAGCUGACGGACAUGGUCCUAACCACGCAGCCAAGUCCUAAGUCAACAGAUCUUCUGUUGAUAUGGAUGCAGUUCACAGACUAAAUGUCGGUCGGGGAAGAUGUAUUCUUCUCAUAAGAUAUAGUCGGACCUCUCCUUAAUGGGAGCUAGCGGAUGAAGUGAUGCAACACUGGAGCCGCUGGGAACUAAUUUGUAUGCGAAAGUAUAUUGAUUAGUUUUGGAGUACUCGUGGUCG; settings: 30 °C;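 further: selection with 25 µg/mL kanamycin versus none on LB agar overnight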
Output yes for self-splicing fitness (ln) not less than -2; output no otherwise.

Exam item: Tell me whether self-splicing fitness (ln) is at least -2 here: `GAGUAGCAAUAUUACGUGGG`
Marked response: no

Exam item: Tell me whether self-splicing fitness (ln) is at least -2 here: `UCCGAGCAAUAUUACGUUCU`
Marked response: no

Exam item: Tell me whether self-splicing fitness (ln) is at least -2 here: `GUCUAGCAAUAUUACGUCGA`
Marked response: no

Exam item: Tell me whether self-splicing fitness (ln) is at least -2 here: `AAAGAGCAAUAUUACGGCGA`
Marked response: yes

Exam item: Tell me whether self-splicing fitness (ln) is at least -2 here: `GACGAGCAAUAUUACGAGCC`
Marked response: no

Exam item: Tell me whether self-splicing fitness (ln) is at least -2 here: `CGACAGCAAUAUUACGCCAU`
Marked response: no

Exam item: Tell me whether self-splicing fitness (ln) is at least -2 here: `UCCCAGCAAUAUUACGACCG`
Marked response: no

Exam item: Tell me whether self-splicing fitness (ln) is at least -2 here: `UGACAGCAAUAUUACGGCUC`
Marked response: yes

---

test: self-splicing fitness, log relative to wild type (ln ratio); higher = more splicing; Tetrahymena group I intron in knt gene, E. coli kanamycin selection, DiMSum; sequences stand for … in CUCUCU…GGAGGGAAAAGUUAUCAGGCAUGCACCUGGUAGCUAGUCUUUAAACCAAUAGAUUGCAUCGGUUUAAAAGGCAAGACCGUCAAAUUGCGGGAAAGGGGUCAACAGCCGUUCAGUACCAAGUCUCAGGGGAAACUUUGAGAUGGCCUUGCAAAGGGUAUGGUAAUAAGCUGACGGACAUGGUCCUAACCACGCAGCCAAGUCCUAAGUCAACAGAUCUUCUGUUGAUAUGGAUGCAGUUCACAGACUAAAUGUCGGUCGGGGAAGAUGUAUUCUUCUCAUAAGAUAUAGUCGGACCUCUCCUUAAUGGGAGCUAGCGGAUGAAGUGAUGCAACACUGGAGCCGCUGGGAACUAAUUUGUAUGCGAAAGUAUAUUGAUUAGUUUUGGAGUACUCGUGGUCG; details: 30 °C
Output Yes for self-splicing fitness (ln) not less than -2; output No otherwise.

Exam item: Tell me whether self-splicing fitness (ln) is at least -2 here: `AACCAGCAAUAUUACGAAUG`
Marked response: No

Exam item: Tell me whether self-splicing fitness (ln) is at least -2 here: `AGCAAGCAAUAUUACGAUUA`
Marked response: Yes

Exam item: Tell me whether self-splicing fitness (ln) is at least -2 here: `ACCGAGCAAUAUUACGUGAC`
Marked response: No

Exam item: Tell me whether self-splicing fitness (ln) is at least -2 here: `CACCAGCAAUAUUACGAGGU`
Marked response: No

Exam item: Tell me whether self-splicing fitness (ln) is at least -2 here: `AACCAGCAAUAUUACGGUGU`
Marked response: Yes

Exam item: Tell me whether self-splicing fitness (ln) is at least -2 here: `CGAUAGCAAUAUUACGACUA`
Marked response: Yes

Exam item: Tell me whether self-splicing fitness (ln) is at least -2 here: `UAUUAGCAAUAUUACGGUGG`
Marked response: No

Exam item: Tell me whether self-splicing fitness (ln) is at least -2 here: `GUGUAGCAAUAUUACGGUGC`
Marked response: No

Exam item: Tell me whether self-splicing fitness (ln) is at least -2 here: `AACGAGCAAUAUUACGUGCU`
Marked response: No

Exam item: Tell me whether self-splicing fitness (ln) is at least -2 here: `CAGUAGCAAUAUUACGGUGU`
Marked response: No

Exam item: Tell me whether self-splicing fitness (ln) is at least -2 here: `CUCUAGCAAUAUUACGUUUA`
Marked response: No

Exam item: Tell me whether self-splicing fitness (ln) is at least -2 here: `AUAGAGCAAUAUUACGGCCA`
Marked response: Yes

Exam item: Tell me whether self-splicing fitness (ln) is at least -2 here: `GACCAGCAAUAUUACGUAAA`
Marked response: Yes

Exam item: Tell me whether self-splicing fitness (ln) is at least -2 here: `UGCCAGCAAUAUUACGUUUA`
Marked response: No

Exam item: Tell me whether self-splicing fitness (ln) is at least -2 here: `GACUAGCAAUAUUACGUAAC`
Marked response: Yes

Exam item: Tell me whether self-splicing fitness (ln) is at least -2 here: `ACGCAGCAAUAUUACGGGUC`
Marked response: No

Exam item: Tell me whether self-splicing fitness (ln) is at least -2 here: `GUAAAGCAAUAUUACGAGAC`
Marked response: No

Exam item: Tell me whether self-splicing fitness (ln) is at least -2 here: `CGUUAGCAAUAUUACGAUUA`
Marked response: No

Exam item: Tell me whether self-splicing fitness (ln) is at least -2 here: `GUCGAGCAAUAUUACGGACA`
Marked response: Yes

Exam item: Tell me whether self-splicing fitness (ln) is at least -2 here: `AGUUAGCAAUAUUACGCUCC`
Marked response: Yes

Exam item: Tell me whether self-splicing fitness (ln) is at least -2 here: `UGCGAGCAAUAUUACGUUAA`
Marked response: No

Exam item: Tell me whether self-splicing fitness (ln) is at least -2 here: `AGAGAGCAAUAUUACGUAGU`
Marked response: No

Exam item: Tell me whether self-splicing fitness (ln) is at least -2 here: `UGUAAGCAAUAUUACGCUAA`
Marked response: No

Exam item: Tell me whether self-splicing fitness (ln) is at least -2 here: `GUCCAGCAAUAUUACGCGGU`
Marked response: No

---

experiment: self-splicing fitness, log relative to wild type (ln ratio); higher = more splicing; Tetrahymena group I intron in knt gene, E. coli kanamycin selection, DiMSum; sequences stand for … in CUCUCU…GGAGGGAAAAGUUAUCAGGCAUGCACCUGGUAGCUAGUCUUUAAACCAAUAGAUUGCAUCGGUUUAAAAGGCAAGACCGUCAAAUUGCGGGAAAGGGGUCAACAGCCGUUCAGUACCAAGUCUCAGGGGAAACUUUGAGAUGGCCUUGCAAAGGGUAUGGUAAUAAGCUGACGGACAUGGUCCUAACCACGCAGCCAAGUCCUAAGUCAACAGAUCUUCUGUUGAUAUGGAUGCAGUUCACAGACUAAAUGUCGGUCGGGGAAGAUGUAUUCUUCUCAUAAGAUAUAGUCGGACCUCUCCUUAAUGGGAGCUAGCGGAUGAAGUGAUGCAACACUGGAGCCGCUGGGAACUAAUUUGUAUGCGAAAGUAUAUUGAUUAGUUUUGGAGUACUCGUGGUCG; details: 30 °C
RECORDED_ENDPOINT: self-splicing fitness (ln)
Please state the value as a number alone, without comment.

Exam item: Entry `GCCCAGCAAUAUUACGUAUC` has what self-splicing fitness (ln)?
Marked response: -0.98

Exam item: Entry `GCAGAGCAAUAUUACGUAAA` has what self-splicing fitness (ln)?
Marked response: -2.76

Exam item: Entry `UCCUAGCAAUAUUACGAAAU` has what self-splicing fitness (ln)?
Marked response: -3.19

Exam item: Entry `AAUUAGCAAUAUUACGGAAU` has what self-splicing fitness (ln)?
Marked response: -2.33

Exam item: Entry `UCUUAGCAAUAUUACGAUGA` has what self-splicing fitness (ln)?
Marked response: -0.467

Exam item: Entry `CAGGAGCAAUAUUACGCUGG` has what self-splicing fitness (ln)?
Marked response: -1.96

Exam item: Entry `GAGGAGCAAUAUUACGUGUG` has what self-splicing fitness (ln)?
Marked response: -2.33

Exam item: Entry `UGCUAGCAAUAUUACGGAUG` has what self-splicing fitness (ln)?
Marked response: -0.534

Exam item: Entry `GGCAAGCAAUAUUACGGGCC` has what self-splicing fitness (ln)?
Marked response: -2.85

Exam item: Entry `GGCGAGCAAUAUUACGGCUC` has what self-splicing fitness (ln)?
Marked response: -1.83

Exam item: Entry `CCAUAGCAAUAUUACGUAGG` has what self-splicing fitness (ln)?
Marked response: -2.29

Exam item: Entry `UCAAAGCAAUAUUACGGGCC` has what self-splicing fitness (ln)?
Marked response: -3.12

Exam item: Entry `UGGCAGCAAUAUUACGAGCG` has what self-splicing fitness (ln)?
Marked response: -0.577

Exam item: Entry `AAGUAGCAAUAUUACGAGAG` has what self-splicing fitness (ln)?
Marked response: -3.09

Exam item: Entry `CCCCAGCAAUAUUACGGCGG` has what self-splicing fitness (ln)?
Marked response: -3.53

Exam item: Entry `UAAGAGCAAUAUUACGUUGU` has what self-splicing fitness (ln)?
Marked response: -1.95

Exam item: Entry `CUCGAGCAAUAUUACGUUGU` has what self-splicing fitness (ln)?
Marked response: -4.17

Exam item: Entry `UUCUAGCAAUAUUACGGGAA` has what self-splicing fitness (ln)?
Marked response: -2.38

Exam item: Entry `UUUUAGCAAUAUUACGCCAG` has what self-splicing fitness (ln)?
Marked response: -2.13

Exam item: Entry `UCCCAGCAAUAUUACGCUGA` has what self-splicing fitness (ln)?
Marked response: -2.26

Exam item: Entry `UAGCAGCAAUAUUACGAGAC` has what self-splicing fitness (ln)?
Marked response: -1.84
